# assayed target: Tb-labeled inactive PDGFRβ (Homo sapiens (Human), UniProt P09619)
# Sequence (P09619 33-1106): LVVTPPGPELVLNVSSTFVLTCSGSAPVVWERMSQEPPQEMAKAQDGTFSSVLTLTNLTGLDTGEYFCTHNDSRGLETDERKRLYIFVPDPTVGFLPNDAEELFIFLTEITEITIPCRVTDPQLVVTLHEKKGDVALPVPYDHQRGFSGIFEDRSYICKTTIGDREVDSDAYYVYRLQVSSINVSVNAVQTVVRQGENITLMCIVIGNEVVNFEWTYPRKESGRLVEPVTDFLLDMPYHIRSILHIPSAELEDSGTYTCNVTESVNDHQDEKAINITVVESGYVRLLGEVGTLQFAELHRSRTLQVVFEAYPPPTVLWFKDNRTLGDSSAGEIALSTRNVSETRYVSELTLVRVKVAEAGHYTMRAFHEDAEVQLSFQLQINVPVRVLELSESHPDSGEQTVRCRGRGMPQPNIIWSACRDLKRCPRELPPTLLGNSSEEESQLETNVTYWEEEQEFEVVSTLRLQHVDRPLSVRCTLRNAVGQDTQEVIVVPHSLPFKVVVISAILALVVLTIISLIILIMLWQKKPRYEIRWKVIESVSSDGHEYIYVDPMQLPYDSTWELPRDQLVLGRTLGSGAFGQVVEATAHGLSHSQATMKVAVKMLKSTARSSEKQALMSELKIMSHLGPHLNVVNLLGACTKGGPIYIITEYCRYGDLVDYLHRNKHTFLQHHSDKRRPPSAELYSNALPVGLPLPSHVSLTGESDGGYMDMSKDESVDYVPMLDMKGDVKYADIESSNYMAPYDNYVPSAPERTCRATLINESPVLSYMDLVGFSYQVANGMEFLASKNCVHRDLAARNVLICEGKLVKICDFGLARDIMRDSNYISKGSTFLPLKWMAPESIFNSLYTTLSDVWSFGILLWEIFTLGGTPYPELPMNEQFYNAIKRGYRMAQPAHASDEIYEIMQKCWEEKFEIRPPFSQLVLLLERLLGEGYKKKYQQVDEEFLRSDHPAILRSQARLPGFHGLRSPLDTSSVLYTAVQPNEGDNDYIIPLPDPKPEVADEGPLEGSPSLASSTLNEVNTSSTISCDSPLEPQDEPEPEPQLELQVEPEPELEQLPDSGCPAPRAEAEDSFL
# assay procedure: PDGFRβ LanthaScreen Assay
# test parameters: read-out: PDGFR Lantha IC50
Kindly apply the following: true (1) if IC50 is less than 20 nM, false (0) in every other case.

Is IC50 strictly under 20 nM for the entry Cc1cc(C(=O)NCCN2CCCC(O)C2)sc1NC(=O)c1cnn2cc(-c3cnn(C)c3)sc12 (stereo not shown) ? false (0)

Is IC50 strictly under 20 nM for the entry "Cc1ncc(NC(=O)CN2CCc3ccncc3C2)cc1NC(=O)c1cnn2cc(-c3cnn(C)c3)sc12" ? true (1)

Is IC50 strictly under 20 nM for the entry Cc1ncc(NC(=O)CN(C)C2CCOCC2)cc1NC(=O)c1cnn2cc(-c3cnn(C(C)C#N)c3)sc12 (stereo not shown) ? true (1)

Is IC50 strictly under 20 nM for the entry "Cc1cc(C(=O)NCCN2CC3CCC2CC3)sc1NC(=O)c1cnn2cc(-c3cnn(C)c3)sc12" ? false (0)

Is IC50 strictly under 20 nM for the entry "Cc1ncc(C(=O)NCCN2CCCC2(C)C)cc1NC(=O)c1cnn2cc(-c3ccc(=O)[nH]c3)sc12" ? false (0)

Is IC50 strictly under 20 nM for the entry "COCCn1cc(-c2cn3ncc(C(=O)Nc4cc(NC(=O)CN5CCCCC5)cnc4C)c3s2)cn1" ? true (1)

Is IC50 strictly under 20 nM for the entry "COC1CCN(CC(=O)Nc2cnc(C)c(NC(=O)c3cnn4cc(-c5cnn(C)c5)sc34)c2)CC1" ? false (0)
